# Tested on: 266295-075-R-J1-PDC spheroid viability;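 further: spheroids exposed to compounds for seven days before readout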
# Assay text: Anticancer human tumor 266295-075-R-J1-PDC patient-derived head and neck squamous carcinoma cell line growth inhibition [POLQ]
# Measurement parameters: second compound 0.316 µM; first compound 0.0316 µM; stronger effect = lower value; spheroids with HUVEC and MSC

- Compound: "COc1cc2cc(C(=O)CCC(=O)O)sc2cc1OC + Nc1ccc(C#CCN(C(=O)Cc2ncc(C(F)(F)F)cc2C(F)(F)F)c2ccc(F)cc2)nn1"
  viability, T/C: "109%"
- Compound: "Cn1ncnc1[C@H]1c2n[nH]c(=O)c3cc(F)cc(c23)N[C@@H]1c1ccc(F)cc1 + COC1C(OC(N)=O)C(O)C(Oc2ccc3c(O)c(NC(=O)c4ccc(O)c(CC=C(C)C)c4)c(=O)oc3c2C)OC1(C)C"
  viability, T/C: "86%"
- Compound: "C#Cc1c(F)ccc2cc(O)cc(-c3ncc4c(N5CC6CCC(C5)N6)nc(OCC56CCCN5CC(F)C6)nc4c3F)c12 (stereo not drawn) + COC1C(OC(N)=O)C(O)C(Oc2ccc3c(O)c(NC(=O)c4ccc(O)c(CC=C(C)C)c4)c(=O)oc3c2C)OC1(C)C"
  viability, T/C: "100%"

Values were extracted from PubChem BioAssay AID1963853.
